- condition-label: in propylene glycol, 308.15 K
measured-endpoint: solubility (mole fraction)

>>> quantitative_result("O=C(NC(Cc1cc(=O)[nH]c2ccccc12)C(=O)O)c1ccc(Cl)cc1 (stereo unspecified)")
0.000291

====

- condition-label: in ethyl acetate, 308.15 K
measured-endpoint: solubility (mole fraction)

>>> quantitative_result("O=C(NC(Cc1cc(=O)[nH]c2ccccc12)C(=O)O)c1ccc(Cl)cc1 (stereo unspecified)")
"3.38e-06"

====

- condition-label: in propylene glycol, 288.15 K
measured-endpoint: solubility (mole fraction)

>>> quantitative_result("O=C(NC(Cc1cc(=O)[nH]c2ccccc12)C(=O)O)c1ccc(Cl)cc1 (stereo unspecified)")
0.000204

====

- condition-label: in methanol, 293.15 K
measured-endpoint: solubility (mole fraction)

>>> quantitative_result("O=C(NC(Cc1cc(=O)[nH]c2ccccc12)C(=O)O)c1ccc(Cl)cc1 (stereo unspecified)")
"8.55e-05"

====

- condition-label: in ethyl acetate, 293.15 K
measured-endpoint: solubility (mole fraction)

>>> result("O=C(NC(Cc1cc(=O)[nH]c2ccccc12)C(=O)O)c1ccc(Cl)cc1 (stereo unspecified)")
"2.21e-06"

====

- condition-label: in ethanol, 298.15 K
measured-endpoint: solubility (mole fraction)

>>> quantitative_result("O=C(NC(Cc1cc(=O)[nH]c2ccccc12)C(=O)O)c1ccc(Cl)cc1 (stereo unspecified)")
"9.68e-05"

====

- condition-label: in water, 288.15 K
measured-endpoint: solubility (mole fraction)

>>> result("O=C(NC(Cc1cc(=O)[nH]c2ccccc12)C(=O)O)c1ccc(Cl)cc1 (stereo unspecified)")
"5.17e-07"

====

- condition-label: in n-butanol, 288.15 K
measured-endpoint: solubility (mole fraction)

>>> result("O=C(NC(Cc1cc(=O)[nH]c2ccccc12)C(=O)O)c1ccc(Cl)cc1 (stereo unspecified)")
"5.47e-05"

====

- condition-label: in acetonitrile, 303.15 K
measured-endpoint: solubility (mole fraction)

>>> quantitative_result("O=C(NC(Cc1cc(=O)[nH]c2ccccc12)C(=O)O)c1ccc(Cl)cc1 (stereo unspecified)")
"1.74e-06"

====

- condition-label: in propylene glycol, 303.15 K
measured-endpoint: solubility (mole fraction)

>>> quantitative_result("O=C(NC(Cc1cc(=O)[nH]c2ccccc12)C(=O)O)c1ccc(Cl)cc1 (stereo unspecified)")
0.000268

====

- condition-label: in ethanol, 293.15 K
measured-endpoint: solubility (mole fraction)

>>> result("O=C(NC(Cc1cc(=O)[nH]c2ccccc12)C(=O)O)c1ccc(Cl)cc1 (stereo unspecified)")
"8.61e-05"

====

- condition-label: in acetonitrile, 298.15 K
measured-endpoint: solubility (mole fraction)

>>> quantitative_result("O=C(NC(Cc1cc(=O)[nH]c2ccccc12)C(=O)O)c1ccc(Cl)cc1 (stereo unspecified)")
"1.38e-06"

====

- condition-label: in isopropanol, 298.15 K
measured-endpoint: solubility (mole fraction)

>>> quantitative_result("O=C(NC(Cc1cc(=O)[nH]c2ccccc12)C(=O)O)c1ccc(Cl)cc1 (stereo unspecified)")
"5.83e-05"

====

- condition-label: in glycerin, 308.15 K
measured-endpoint: solubility (mole fraction)

>>> result("O=C(NC(Cc1cc(=O)[nH]c2ccccc12)C(=O)O)c1ccc(Cl)cc1 (stereo unspecified)")
"5.35e-06"

====

- condition-label: in acetonitrile, 288.15 K
measured-endpoint: solubility (mole fraction)

>>> quantitative_result("O=C(NC(Cc1cc(=O)[nH]c2ccccc12)C(=O)O)c1ccc(Cl)cc1 (stereo unspecified)")
"8.25e-07"

====

- condition-label: in glycerin, 293.15 K
measured-endpoint: solubility (mole fraction)

>>> quantitative_result("O=C(NC(Cc1cc(=O)[nH]c2ccccc12)C(=O)O)c1ccc(Cl)cc1 (stereo unspecified)")
"3.45e-06"

====

- condition-label: in water, 298.15 K
measured-endpoint: solubility (mole fraction)

>>> quantitative_result("O=C(NC(Cc1cc(=O)[nH]c2ccccc12)C(=O)O)c1ccc(Cl)cc1 (stereo unspecified)")
"8.69e-07"

====

- condition-label: in acetonitrile, 308.15 K
measured-endpoint: solubility (mole fraction)

>>> quantitative_result("O=C(NC(Cc1cc(=O)[nH]c2ccccc12)C(=O)O)c1ccc(Cl)cc1 (stereo unspecified)")
"2.2e-06"

====

- condition-label: in ethyl acetate, 298.15 K
measured-endpoint: solubility (mole fraction)

>>> result("O=C(NC(Cc1cc(=O)[nH]c2ccccc12)C(=O)O)c1ccc(Cl)cc1 (stereo unspecified)")
"2.56e-06"

====

- condition-label: in n-propanol, 293.15 K
measured-endpoint: solubility (mole fraction)

>>> quantitative_result("O=C(NC(Cc1cc(=O)[nH]c2ccccc12)C(=O)O)c1ccc(Cl)cc1 (stereo unspecified)")
"7.1e-05"

====

- condition-label: in ethanol, 303.15 K
measured-endpoint: solubility (mole fraction)

>>> result("O=C(NC(Cc1cc(=O)[nH]c2ccccc12)C(=O)O)c1ccc(Cl)cc1 (stereo unspecified)")
0.000109

====

- condition-label: in methanol, 288.15 K
measured-endpoint: solubility (mole fraction)

>>> quantitative_result("O=C(NC(Cc1cc(=O)[nH]c2ccccc12)C(=O)O)c1ccc(Cl)cc1 (stereo unspecified)")
"7.56e-05"

====

- condition-label: in water, 308.15 K
measured-endpoint: solubility (mole fraction)

>>> quantitative_result("O=C(NC(Cc1cc(=O)[nH]c2ccccc12)C(=O)O)c1ccc(Cl)cc1 (stereo unspecified)")
"1.43e-06"

====

- condition-label: in acetone, 293.15 K
measured-endpoint: solubility (mole fraction)

>>> result("O=C(NC(Cc1cc(=O)[nH]c2ccccc12)C(=O)O)c1ccc(Cl)cc1 (stereo unspecified)")
"1.2e-05"

====

- condition-label: in methanol, 303.15 K
measured-endpoint: solubility (mole fraction)

>>> quantitative_result("O=C(NC(Cc1cc(=O)[nH]c2ccccc12)C(=O)O)c1ccc(Cl)cc1 (stereo unspecified)")
0.000107

====

- condition-label: in PEG-400, 288.15 K
measured-endpoint: solubility (mole fraction)

>>> quantitative_result("O=C(NC(Cc1cc(=O)[nH]c2ccccc12)C(=O)O)c1ccc(Cl)cc1 (stereo unspecified)")
0.00236

====

- condition-label: in PEG-400, 293.15 K
measured-endpoint: solubility (mole fraction)

>>> quantitative_result("O=C(NC(Cc1cc(=O)[nH]c2ccccc12)C(=O)O)c1ccc(Cl)cc1 (stereo unspecified)")
0.0025

====

- condition-label: in methanol, 308.15 K
measured-endpoint: solubility (mole fraction)

>>> quantitative_result("O=C(NC(Cc1cc(=O)[nH]c2ccccc12)C(=O)O)c1ccc(Cl)cc1 (stereo unspecified)")
0.00012

====

- condition-label: in ethyl acetate, 303.15 K
measured-endpoint: solubility (mole fraction)

>>> quantitative_result("O=C(NC(Cc1cc(=O)[nH]c2ccccc12)C(=O)O)c1ccc(Cl)cc1 (stereo unspecified)")
"2.94e-06"

====

- condition-label: in PEG-400, 308.15 K
measured-endpoint: solubility (mole fraction)

>>> quantitative_result("O=C(NC(Cc1cc(=O)[nH]c2ccccc12)C(=O)O)c1ccc(Cl)cc1 (stereo unspecified)")
0.00292

====

- condition-label: in water, 303.15 K
measured-endpoint: solubility (mole fraction)

>>> quantitative_result("O=C(NC(Cc1cc(=O)[nH]c2ccccc12)C(=O)O)c1ccc(Cl)cc1 (stereo unspecified)")
"1.12e-06"

====

- condition-label: in isopropanol, 293.15 K
measured-endpoint: solubility (mole fraction)

>>> quantitative_result("O=C(NC(Cc1cc(=O)[nH]c2ccccc12)C(=O)O)c1ccc(Cl)cc1 (stereo unspecified)")
"4.75e-05"

====

- condition-label: in n-butanol, 303.15 K
measured-endpoint: solubility (mole fraction)

>>> result("O=C(NC(Cc1cc(=O)[nH]c2ccccc12)C(=O)O)c1ccc(Cl)cc1 (stereo unspecified)")
"9.12e-05"

====

- condition-label: in acetonitrile, 293.15 K
measured-endpoint: solubility (mole fraction)

>>> quantitative_result("O=C(NC(Cc1cc(=O)[nH]c2ccccc12)C(=O)O)c1ccc(Cl)cc1 (stereo unspecified)")
"1.07e-06"

====

- condition-label: in ethanol, 288.15 K
measured-endpoint: solubility (mole fraction)

>>> quantitative_result("O=C(NC(Cc1cc(=O)[nH]c2ccccc12)C(=O)O)c1ccc(Cl)cc1 (stereo unspecified)")
"7.58e-05"

====

- condition-label: in glycerin, 303.15 K
measured-endpoint: solubility (mole fraction)

>>> quantitative_result("O=C(NC(Cc1cc(=O)[nH]c2ccccc12)C(=O)O)c1ccc(Cl)cc1 (stereo unspecified)")
"4.63e-06"

====

- condition-label: in propylene glycol, 293.15 K
measured-endpoint: solubility (mole fraction)

>>> quantitative_result("O=C(NC(Cc1cc(=O)[nH]c2ccccc12)C(=O)O)c1ccc(Cl)cc1 (stereo unspecified)")
0.000224

====

- condition-label: in isopropanol, 303.15 K
measured-endpoint: solubility (mole fraction)

>>> quantitative_result("O=C(NC(Cc1cc(=O)[nH]c2ccccc12)C(=O)O)c1ccc(Cl)cc1 (stereo unspecified)")
"7.17e-05"
